// merged dataset of IC50 values, system = UniProt:P07711, multiple refs
EXPERIMENTAL ENDPOINT: IC50 (nM)

Example entries and their recorded answers appear below.
N#CCNC(=O)[C@H](Cc1cccc(-c2ccccn2)c1)NC(=O)c1ccccc1
3160
CC(NC(=O)c1ccc(OCc2ccccn2)c(C(F)(F)F)c1Cl)C(=O)C(=O)Nc1ccn(C)n1 (stereo not drawn)
479
NC(=S)N/N=C1\CCSc2c(F)cc(Br)cc21
434
Cc1cc(C(=O)N[C@@H](Cc2cccc(Cl)c2)C(=O)NCC#N)n(C)n1
501

[a] N#CC1(NC(=O)[C@H](CS(=O)(=O)c2ccc(Cl)c(Cl)c2)N[C@@H](c2ccccc2)C(F)(F)F)CC1
[b] COc1ccccc1/C=C/C=C/C(=O)c1cccnc1
[c] N#Cc1nc(NCCc2ccccc2)c2ncn(Cc3cccnc3)c2n1
[d] N#CN1CCC(NS(=O)(=O)c2ccccc2)C1 (stereo not drawn)
[e] COC(=O)CSC(=O)NNC(=O)[C@H](Cc1c[nH]c2ccccc12)NC(=O)OC(C)(C)C
Hey, quick one: sort these by IC50, largest value first please. Reply with the labels, ordered as the question asks.
b, c, e, d, a

---

Below are IC50 measurements against Procathepsin L (Homo sapiens, UniProt P07711) drawn from the literature.
Sequence (P07711 whole entry): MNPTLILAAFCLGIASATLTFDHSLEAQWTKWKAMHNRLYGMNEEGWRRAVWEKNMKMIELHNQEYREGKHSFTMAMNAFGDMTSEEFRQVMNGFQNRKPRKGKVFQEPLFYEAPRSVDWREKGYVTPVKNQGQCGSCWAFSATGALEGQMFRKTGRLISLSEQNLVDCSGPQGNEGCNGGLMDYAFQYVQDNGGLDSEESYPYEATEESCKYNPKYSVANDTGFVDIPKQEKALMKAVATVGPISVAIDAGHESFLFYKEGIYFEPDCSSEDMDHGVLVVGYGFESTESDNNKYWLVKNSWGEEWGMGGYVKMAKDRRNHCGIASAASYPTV

Worked cases, IC50 given:
CC1(C)CCc2cc(CCC(=O)c3c(O)cc4c(c3O)CCC(C)(C)O4)ccc2O1
> 100 µM
NC(=S)NN=C1CCS(=O)(=O)c2ccc(O)cc21 (mixture of isomers)
> 10 µM
CN1Cc2cc(-c3ccc(C[C@@H](C#N)NC(=O)[C@@H]4CCCCN4)cc3)ccc2C1=O
> 10 µM
CC(C)(C#N)NC(=O)[C@@H]1C[C@@H](S(=O)(=O)c2ccccc2)C[C@H]1C(=O)N1CCOCC1
> 25 µM

Would you please give the reported IC50 of Cc1ccc2c(c1)/C(=N/NC(N)=S)CCS2(=O)=O with Procathepsin L (Homo sapiens, UniProt P07711)?
> 10 µM

Enter measured IC50, system Procathepsin L (Homo sapiens, UniProt P07711), for the compound shown: NC(=S)NN=C1c2ccccc2-c2ccccc21
> 10 µM

Fill: IC50 (Procathepsin L (Homo sapiens, UniProt P07711)) for this compound COc1ccc(/C=C/C(=O)c2ccco2)cc1Br
> 100 µM

---

pIC50: −log10 of the molar value.
Literature-derived pIC50 for Procathepsin L (Homo sapiens) follows.

Some compounds with known pIC50 results, for comparison:
NC(=S)N/N=C1\CC(Nc2ccccc2)c2ccc(Br)cc21 (stereo unspecified)
< 5.00
NC(=S)NN=C(c1ccccc1)c1ccccc1
< 5.00
CC(C)(C)[C@H](NC(=O)Cc1cc(Cl)cc(Cl)c1)C(=O)NCC(=O)NC/C=C/S(C)(=O)=O
< 4.00
CC(C)CC(C(=O)NCC#N)c1csc(-c2ccccc2)n1 (stereo unspecified)
< 5.00
N#Cc1ccc(-c2ccc(C[C@@H](C#N)NC(=O)[C@@H]3CCCCN3)cc2)cc1
< 5.00

Send back Procathepsin L (Homo sapiens) pIC50 of CC(C)CC(C(=O)NCC#N)c1cccc(-c2ccc(S(C)(=O)=O)cc2)c1 (stereo unspecified) only.
< 5.00

---

Compiled literature pIC50, tested on Procathepsin L (Homo sapiens, UniProt P07711).
pIC50: −log10 of the molar value.

Example cases with answers are listed next.
COc1ccc(C(=O)NCC(=O)NCC#N)cc1C(=O)C(C)(C)c1cc(Cl)cc(Cl)c1
< 4.00
N#CC1(NC(=O)[C@@H]2C[C@@H](S(=O)(=O)c3ccccc3)C[C@H]2C(=O)Nc2ccc(F)cc2)CC1
< 4.60
NC(=S)N/N=C1\CCS(=O)(=O)c2c(F)cc(F)cc21
< 5.00
CN(C)CCOc1ccc(C(=O)NCc2ccnc(C#N)n2)cc1C(=O)C(C)(C)c1cc(Cl)cc(Cl)c1
< 4.96
CNC(=O)C(=O)C(C)NC(=O)c1ccc(OCc2ccccn2)c(C(F)(F)F)c1Cl (configuration not stated)
< 5.00
CC(C)(C)[Si](C)(C)Oc1cc(Br)cc(/C(=N\NC(N)=S)c2cccc(Br)c2)c1
< 5.00
NC(=S)N/N=C(/c1cccc(Br)c1)C1CCCCC1
< 5.00
CCOC(OCC)[C@H](C)NC(=O)[C@H](Cc1ccccc1)NC(=O)[C@@H](CC(=O)NO)CC(C)C
< 6.00

# return pIC50 for NC(=S)NN=C1CCSc2ccc(N)cc21 (mixture of isomers) , test system: Procathepsin L (Homo sapiens, UniProt P07711)
< 5.00

Jot down pIC50 (Procathepsin L (Homo sapiens, UniProt P07711)) of CCCCNC(=O)C([C@H]1O[C@@H]1c1ccccc1Br)N(Cc1ccccc1)C(=O)c1ccccc1 (some centres not stated) .
< 4.30

// output pIC50; input CS(=O)(=O)C[C@H](N[C@@H](c1ccc(-c2ccc(F)cc2)cc1)C(F)(F)F)C(=O)NC1(C#N)CC1 ; system Procathepsin L (Homo sapiens, UniProt P07711)
< 5.00

Look up and report measured pIC50 (Procathepsin L (Homo sapiens, UniProt P07711)) for the following compound: N=C(N)N/N=C1\CCS(=O)(=O)c2ccc([N+](=O)[O-])cc21
< 5.00
